Source of measurements: patent US12624044B2

Target: SMARCA2 (Homo sapiens, UniProt P51531)
Sequence (P51531 whole entry): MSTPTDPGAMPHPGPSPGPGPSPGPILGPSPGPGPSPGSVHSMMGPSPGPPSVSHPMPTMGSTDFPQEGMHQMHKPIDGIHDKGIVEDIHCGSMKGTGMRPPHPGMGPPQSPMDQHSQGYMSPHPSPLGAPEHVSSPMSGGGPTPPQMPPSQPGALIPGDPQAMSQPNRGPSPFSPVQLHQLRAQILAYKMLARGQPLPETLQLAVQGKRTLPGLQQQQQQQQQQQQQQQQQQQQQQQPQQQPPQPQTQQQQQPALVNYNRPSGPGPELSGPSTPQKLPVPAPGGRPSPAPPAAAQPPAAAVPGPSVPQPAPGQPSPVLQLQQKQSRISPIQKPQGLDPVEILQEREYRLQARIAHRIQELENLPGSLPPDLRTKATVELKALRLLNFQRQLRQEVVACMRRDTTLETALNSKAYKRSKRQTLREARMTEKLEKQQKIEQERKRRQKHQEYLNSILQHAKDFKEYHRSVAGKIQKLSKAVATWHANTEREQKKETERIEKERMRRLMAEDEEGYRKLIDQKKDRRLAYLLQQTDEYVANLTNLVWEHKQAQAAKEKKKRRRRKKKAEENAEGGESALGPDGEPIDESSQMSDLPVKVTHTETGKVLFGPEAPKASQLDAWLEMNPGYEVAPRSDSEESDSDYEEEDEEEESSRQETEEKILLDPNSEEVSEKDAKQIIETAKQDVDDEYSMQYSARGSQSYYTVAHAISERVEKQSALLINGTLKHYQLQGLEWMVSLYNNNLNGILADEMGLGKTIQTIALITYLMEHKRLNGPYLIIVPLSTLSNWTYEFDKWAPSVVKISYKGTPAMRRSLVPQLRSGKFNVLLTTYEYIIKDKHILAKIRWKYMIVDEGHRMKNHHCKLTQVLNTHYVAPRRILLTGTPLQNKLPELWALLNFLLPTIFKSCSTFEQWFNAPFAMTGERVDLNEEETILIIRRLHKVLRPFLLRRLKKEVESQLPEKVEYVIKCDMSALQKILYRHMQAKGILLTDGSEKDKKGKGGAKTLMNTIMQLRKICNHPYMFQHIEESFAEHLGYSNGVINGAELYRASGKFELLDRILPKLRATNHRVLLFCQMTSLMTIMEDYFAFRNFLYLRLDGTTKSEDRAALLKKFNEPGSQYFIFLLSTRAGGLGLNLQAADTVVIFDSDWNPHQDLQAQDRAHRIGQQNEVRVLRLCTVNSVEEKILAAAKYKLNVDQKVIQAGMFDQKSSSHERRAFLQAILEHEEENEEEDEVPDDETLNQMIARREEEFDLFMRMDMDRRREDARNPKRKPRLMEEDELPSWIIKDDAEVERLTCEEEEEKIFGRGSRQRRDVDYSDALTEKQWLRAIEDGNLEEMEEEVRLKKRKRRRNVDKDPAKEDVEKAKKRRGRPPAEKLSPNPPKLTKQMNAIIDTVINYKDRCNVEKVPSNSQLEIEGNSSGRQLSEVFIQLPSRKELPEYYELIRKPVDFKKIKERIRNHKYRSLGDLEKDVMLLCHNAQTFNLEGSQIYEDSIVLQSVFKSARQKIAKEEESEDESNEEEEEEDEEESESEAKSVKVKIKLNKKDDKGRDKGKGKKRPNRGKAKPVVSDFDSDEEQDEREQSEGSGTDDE
Experiment: MSD SMARCA2 degradation in A549 cell line
Type: cell-based
Details: A549 cells, 24 h, read-out: SMARCA2 MSD A549 degradation 24 h: Average external-Abs DC50
What DC50 was measured for each of the following?

Value (DC50, SMARCA2 (Homo sapiens, UniProt P51531)) for record Cc1ncsc1-c1ccc(CNC(=O)[C@@H]2C[C@@H](O)CN2C(=O)[C@@H](NC(=O)CCCC#Cc2cnc(N3C4CCC3CN(c3cc(-c5ccccc5O)nnc3N)C4)nc2)C(C)(C)C)cc1 = 100 to 500 nM

Value (DC50, SMARCA2 (Homo sapiens, UniProt P51531)) for record Cc1ncsc1-c1ccc(CNC(=O)[C@@H]2C[C@@H](O)CN2C(=O)[C@@H](NC(=O)CCN2CCC(c3cnc(N4C5CCC4CN(c4cc(-c6ccccc6O)nnc4N)C5)nc3)CC2)C(C)(C)C)cc1 = > 1000 nM

Value (DC50, SMARCA2 (Homo sapiens, UniProt P51531)) for record Cc1ncsc1-c1ccc(CNC(=O)[C@@H]2C[C@@H](O)CN2C(=O)[C@@H](NC(=O)C2CC3(C2)CC(N(C)Cc2cnc(N4C5CCC4CN(c4cc(-c6ccccc6O)nnc4N)C5)nc2)C3)C(C)(C)C)cc1 (stereo partly drawn) = 100 to 500 nM

Value (DC50, SMARCA2 (Homo sapiens, UniProt P51531)) for record Cc1ncsc1-c1ccc(CNC(=O)[C@@H]2C[C@@H](O)CN2C(=O)[C@@H](NC(=O)[C@H]2CC3(C2)C[C@H](N2CCC(c4cnc(N5C6CCC5CN(c5cc(-c7ccccc7O)nnc5N)C6)nc4)CC2)C3)C(C)(C)C)cc1 (stereo partly drawn) [I-423] = < 100 nM

Value (DC50, SMARCA2 (Homo sapiens, UniProt P51531)) for record Cc1ncsc1-c1ccc(CNC(=O)[C@@H]2C[C@@H](O)CN2C(=O)[C@@H](NC(=O)C2CCC(c3cnc(N4C5CCC4CN(c4cc(-c6ccccc6O)nnc4N)C5)nc3)CC2C)C(C)(C)C)cc1 (stereo partly drawn) [I-411] = 501 to 1000 nM

Value (DC50, SMARCA2 (Homo sapiens, UniProt P51531)) for record Cn1c(=O)n(C2CCC(=O)NC2=O)c2ccc([C@H]3CC[C@@H](N4CCC(c5cnc(N6C7CCC6CN(c6cc(-c8ccccc8O)nnc6N)C7)nc5)CC4)CC3)cc21 (stereo partly drawn) = < 100 nM

Value (DC50, SMARCA2 (Homo sapiens, UniProt P51531)) for record Cn1c(=O)n(C2CCC(=O)NC2=O)c2ccc([C@H]3CC[C@H](N4CCC(c5nccc(N6C7CCC6CN(c6cc(-c8ccccc8O)nnc6N)C7)n5)CC4)CC3)cc21 (stereo partly drawn) = < 100 nM

Value (DC50, SMARCA2 (Homo sapiens, UniProt P51531)) for record Cc1ncsc1-c1ccc(CNC(=O)[C@@H]2C[C@@H](O)CN2C(=O)[C@@H](NC(=O)C2(F)CC2)C2CCC(N(C)CCCc3cnc(N4C5CCC4CN(c4cc(-c6ccccc6O)nnc4N)C5)nc3)CC2)cc1 (stereo partly drawn) = > 1000 nM

Value (DC50, SMARCA2 (Homo sapiens, UniProt P51531)) for record Cc1ncsc1-c1ccc(CNC(=O)[C@@H]2C[C@@H](O)CN2C(=O)[C@@H](NC(=O)[C@H]2CC[C@@H](c3cnc(N4C5CCC4CN(c4cc(-c6ccccc6O)nnc4N)C5)nc3)CC2)C(C)(C)C)cc1 = 100 to 500 nM

----------
Biological target: SMARCA2 (Homo sapiens, UniProt P51531)
Experiment: MSD SMARCA2 degradation in A549 cell line
Type: cell-based
Conditions: A549 cells, 24 h, read-out: SMARCA2 MSD A549 degradation 24 h: Average external-Abs DC50
REPORTED_PROPERTY: DC50

Value (DC50, SMARCA2 (Homo sapiens, UniProt P51531)) for record Cc1ncsc1-c1ccc(CNC(=O)[C@@H]2C[C@@H](O)CN2C(=O)[C@@H](NC(=O)[C@H]2CC3(C2)C[C@H](c2ccc(CN4CCC(Cn5cc(-c6cc(-c7ccccc7O)nnc6N)cn5)CC4)cc2)C3)C(C)(C)C)cc1 (stereo partly shown) [I-433] = < 100 nM

Value (DC50, SMARCA2 (Homo sapiens, UniProt P51531)) for record Cc1ncsc1-c1ccc(CNC(=O)[C@@H]2C[C@@H](O)CN2C(=O)[C@@H](NC(=O)N2CCC(c3cnc(N4C5CCC4CN(c4cc(-c6ccccc6O)nnc4N)C5)nc3)CC2)C(C)(C)C)cc1 [I-448] = 100 to 500 nM

Value (DC50, SMARCA2 (Homo sapiens, UniProt P51531)) for record Cc1ncsc1-c1ccc(CNC(=O)[C@@H]2C[C@@H](O)CN2C(=O)[C@@H](NC(=O)Cc2ccc(-c3ccc(N4CCC(Cn5cc(-c6cc(-c7ccccc7O)nnc6N)cn5)CC4)cc3)cc2)C(C)(C)C)cc1 [I-508] = > 1000 nM

Value (DC50, SMARCA2 (Homo sapiens, UniProt P51531)) for record Cc1ncsc1-c1ccc(CNC(=O)[C@@H]2C[C@@H](O)CN2C(=O)[C@@H](NC(=O)C2CC3(CCN(CCN4CCC(Cn5cc(-c6cc(-c7ccccc7O)nnc6N)cn5)CC4)CC3)C2)C(C)(C)C)cc1 [I-381] = 501 to 1000 nM

----------
Target: SMARCA2 (Homo sapiens)
Assay: MSD SMARCA2 degradation in A549 cell line
Format: cell-based
Conditions: A549 cells, 24 h, read-out: SMARCA2 MSD A549 degradation 24 h: Average external-Abs DC50
REPORTED_PROPERTY: DC50

Notebook: Cc1ncsc1-c1ccc(CNC(=O)[C@@H]2C[C@@H](O)CN2C(=O)[C@@H](NC(=O)CCCCN2CCC(C(=O)N3CCC(Cn4cc(-c5cc(-c6ccccc6O)nnc5N)cn4)CC3)CC2)C(C)(C)C)cc1 [I-352] , DC50 read as > 1000 nM

Notebook: Cc1ncsc1-c1ccc(CNC(=O)[C@@H]2C[C@@H](O)CN2C(=O)[C@@H](NC(=O)[C@H]2CC[C@@H](c3cnc(N4C5CCC4CN(c4cc(-c6ccccc6O)nnc4N)C5)nc3C)CC2)C(C)(C)C)cc1 [I-440] , DC50 read as 100 to 500 nM

Notebook: Cc1ncsc1-c1ccc(CNC(=O)[C@@H]2C[C@@H](O)CN2C(=O)[C@@H](NC(=O)CN2CCN([C@H]3CC[C@H](c4cnc(N5C6CCC5CN(c5cc(-c7ccccc7O)nnc5N)C6)nc4)CC3)CC2)C(C)(C)C)cc1 (single isomer, unassigned) [I-446] , DC50 read as < 100 nM

----------
Target: SMARCA2 (Homo sapiens, UniProt P51531)
Assay: MSD SMARCA2 degradation in NCI-H1299 cell line (24 h)
Assay type: cell-based
Design: HC: NCI-H1299 cells treated with DMSO; host or cells: NCI-H1299
Details: NCI-H1299 cells, read-out: SMARCA2 MSD H1299 degradation 24 h: External Abs-DC50
REPORTED_PROPERTY: DC50

Notebook: COc1cc(C(=O)NCCCCCCCCCCCNCc2ccc(N3CCN(c4cc(-c5ccccc5O)nnc4N)CC3)cc2)ccc1NC(=O)[C@@H]1N[C@@H](CC(C)(C)C)[C@](C#N)(c2ccc(Cl)cc2F)[C@H]1c1cccc(Cl)c1F , DC50 read as > 1 µM

Notebook: Cn1c(=O)n(C2CCC(=O)NC2=O)c2ccc(CCCOCCOCCOCCOCCOCCNC(=O)CCCCCCCCOc3ccc(N4C[C@H]5C[C@@H]4CN5/C=C/C(=O)c4ccccc4O)nc3)cc21 (stereo partly shown) , DC50 read as > 1 µM

Notebook: Cn1c(=O)n(C2CCC(=O)NC2=O)c2cccc(CCCOCCOc3cccc(N4C[C@H]5C[C@@H]4CN5/C=C/C(=O)c4ccccc4O)n3)c21 (stereo partly shown) , DC50 read as > 1 µM

Notebook: Cn1c(=O)n(C2CCC(=O)NC2=O)c2ccc(C3CCC(N4CCC(c5cnc(N6C7CCC6CN(c6cc(-c8ccccc8O)nnc6N)C7)nc5)CC4)CC3)cc21 (stereo not shown) , DC50 read as < 0.1 µM

----------
Molecular target: SMARCA2 (Homo sapiens, UniProt P51531)
Experiment: MSD SMARCA2 degradation in A549 cell line
Type: cell-based
Details: A549 cells, 24 h, read-out: SMARCA2 MSD A549 degradation 24 h: Average external-Abs DC50
REPORTED_PROPERTY: DC50

Notebook: CC(=O)Nc1cc(-c2scnc2C)ccc1CNC(=O)[C@@H]1C[C@@H](O)CN1C(=O)[C@@H](NC(=O)[C@H]1CC[C@H](c2cnc(N3C4CCC3CN(c3cc(-c5ccccc5O)nnc3N)C4)nc2)CC1)C(C)(C)C , DC50 read as < 100 nM

Notebook: Cc1ncsc1-c1ccc(CNC(=O)[C@@H]2C[C@@H](O)CN2C(=O)[C@@H](NC(=O)C2CC3CCC2C[C@H]3c2cnc(N3C4CCC3CN(c3cc(-c5ccccc5O)nnc3N)C4)nc2)C(C)(C)C)c(C(F)(F)F)c1 (stereo partly shown) , DC50 read as 501 to 1000 nM

Notebook: Cn1c(=O)n(C2CCC(=O)NC2=O)c2ccc(CCCOCCCCN3CCN(Cc4cccc(C#Cc5cc(NC(=O)Nc6cc(F)ncc6CO)ccn5)c4)CC3)cc21 (stereo not shown) , DC50 read as > 1000 nM

Notebook: Cc1ncsc1-c1ccc(CNC(=O)[C@@H]2C[C@@H](O)CN2C(=O)[C@@H](NC(=O)CCCCCNCc2ccc(C#Cc3cc(NC(=O)Nc4cc(F)ncc4CO)ccn3)cc2)C(C)(C)C)cc1 , DC50 read as > 1000 nM

Notebook: CN(CCCOCCCc1cccc2c1n(C)c(=O)n2C1CCC(=O)NC1=O)Cc1cccc(C#Cc2cc(NC(=O)Nc3cc(F)ncc3CO)ccn2)c1 (stereo not shown) , DC50 read as > 1000 nM

Notebook: Cc1ncsc1-c1ccc(CNC(=O)[C@@H]2C[C@@H](O)CN2C(=O)[C@@H](NC(=O)[C@H]2CC[C@H](CN(C)Cc3cnc(N4C5CCC4CN(c4cc(-c6ccccc6O)nnc4N)C5)nc3)CC2)C(C)(C)C)cc1 , DC50 read as 100 to 500 nM

Notebook: Cc1ncsc1-c1ccc(CNC(=O)[C@@H]2C[C@@H](O)CN2C(=O)[C@@H](NC(=O)C2CC3(CCN(Cc4cnc(N5C6CCC5CN(c5cc(-c7ccccc7O)nnc5N)C6)nc4)CC3)C2)C(C)(C)C)cc1 , DC50 read as 100 to 500 nM
